Assay: Determination of logP value (octanol/water partition coefficient)
Format: physicochemical
Experimental: The mixture was shaken with a vortex shaker for 5 min and centrifugated (9000 rpm) for 5 min. A 3 × 20 µL amount of both solvents was pipetted into a vial. The radioactivity of the fractions was determined with a gamma counter.
Positions of bridges follow the written chain, without caps; N, C: chain ends. Residues, ends and D or L forms follow the SMILES beside them. *: point of attachment. X1 = O=C(O)CN1CCN(CC(=O)O)CCN(C(CCC(=O)NCc2ccc(NC(=S)*)cc2)C(=O)O)CCN(CC(=O)O)CC1
MEASURED_ATTRIBUTE: logP

Would you mind telling me what logP value was observed for N=C(N)NCCC[C@@H]1NC(=O)CNC(=O)[C@H](CC(N)=O)NC(=O)[C@H](CCCCNC(=S)Nc2ccc(CNC(=O)CCC(C(=O)O)N3CCN(CC(=O)O)CCN(CC(=O)O)CCN(CC(=O)O)CC3)cc2)NC(=O)CC[C@@H](C(N)=O)NC1=O (stereo partly shown) [[^68Ga]-11, metal not drawn] (K(X1)NGRE-NH2; lactam N-5) ?
-4.13

====

Measured logP accompanies every entry in the list below.
test: Determination of logP value (octanol/water partition coefficient); type: physicochemical; details: 1-octanol/water, gamma counter; read-out: octanol/water partition coefficient (logP)
Form: value (number only, do not type unit).

{"columns": ["COMPOUND", "logP"],
 "data": [
  ["N=C(N)NCCC[C@@H]1NC(=O)CNC(=O)[C@H](CC(N)=O)NC(=O)[C@H](CCCCNC(=O)CCC(=O)N2Cc3ccccc3-c3c(nnn3CCCO[C@@H]3O[C@H](CO)[C@@H](O[C@@H]4O[C@H](CO)[C@H](O)[C@H](O)[C@H]4O)[C@H](O)[C@H]3NC(=S)Nc3ccc(CNC(=O)CCC(C(=O)O)N4CCN(CC(=O)O)CCN(CC(=O)O)CCN(CC(=O)O)CC4)cc3)-c3ccccc32)NC(=O)CC[C@@H](C(N)=O)NC1=O (some centres unmarked) [[^68Ga]-9, metal not drawn]", -3.68]
]}

So what does the record say about logP for N=C(N)NCCC[C@@H]1NC(=O)CNC(=O)[C@H](CC(N)=O)NC(=O)[C@H](CCCCNC(=O)CCOCCOCCOCCOCCNC(=O)CCC(=O)N2Cc3ccccc3-c3c(nnn3CCCO[C@@H]3O[C@H](CO)[C@@H](O[C@@H]4O[C@H](CO)[C@H](O)[C@H](O)[C@H]4O)[C@H](O)[C@H]3NC(=S)Nc3ccc(CNC(=O)CCC(C(=O)O)N4CCN(CC(=O)O)CCN(CC(=O)O)CCN(CC(=O)O)CC4)cc3)-c3ccccc32)NC(=O)CC[C@@H](C(N)=O)NC1=O (some centres unmarked) [[^68Ga]-10, metal not drawn] ?
-3.69

====

assay: in vivo; conditions: C57BL/6, mouse, in vivo, iv, total radioactivity, liver SUVmean
Positions of bridges follow the written chain, without caps; N, C: chain ends. Residues, ends and D or L forms follow the SMILES beside them. *: point of attachment. X1 = O=C(O)CN1CCN(CC(=O)O)CCN(C(CCC(=O)NCc2ccc(NC(=S)*)cc2)C(=O)O)CCN(CC(=O)O)CC1
MEASURED_ATTRIBUTE: SUV at 70 min (SUV)
// units = SUV; emit number, no label

GET /values?readout=SUV at 70 min&item= N=C(N)NCCC[C@@H]1NC(=O)CNC(=O)[C@H](CC(N)=O)NC(=O)[C@H](CCCCNC(=S)Nc2ccc(CNC(=O)CCC(C(=O)O)N3CCN(CC(=O)O)CCN(CC(=O)O)CCN(CC(=O)O)CC3)cc2)NC(=O)CC[C@@H](C(N)=O)NC1=O (stereo partly shown) [[^68Ga]-11, metal not drawn] (K(X1)NGRE-NH2; lactam N-5)
0.28

====

# tissue to tissue ratio at 70 min annotations
assay: In vivo PET imaging of B16-F10 melanoma tumor-bearing mice; details: C57BL/6, mouse, in vivo, iv, total radioactivity
Positions of bridges follow the written chain, without caps; N, C: chain ends. Residues, ends and D or L forms follow the SMILES beside them. *: point of attachment. X1 = O=C(O)CN1CCN(CC(=O)O)CCN(C(CCC(=O)NCc2ccc(NC(=S)*)cc2)C(=O)O)CCN(CC(=O)O)CC1
// response body must contain only the number

{"columns": ["COMPOUND", "tissue to tissue ratio at 70 min"],
 "data": [
  ["N=C(N)NCCC[C@@H]1NC(=O)CNC(=O)[C@H](CC(N)=O)NC(=O)[C@H](CCCCNC(=O)CCC(=O)N2Cc3ccccc3-c3c(nnn3CCCO[C@@H]3O[C@H](CO)[C@@H](O[C@@H]4O[C@H](CO)[C@H](O)[C@H](O)[C@H]4O)[C@H](O)[C@H]3NC(=S)Nc3ccc(CNC(=O)CCC(C(=O)O)N4CCN(CC(=O)O)CCN(CC(=O)O)CCN(CC(=O)O)CC4)cc3)-c3ccccc32)NC(=O)CC[C@@H](C(N)=O)NC1=O (stereo partly drawn) [[^68Ga]-9, metal not drawn]", 6.01]
]}

Item under review: N=C(N)NCCC[C@@H]1NC(=O)CNC(=O)[C@H](CC(N)=O)NC(=O)[C@H](CCCCNC(=O)CCOCCOCCOCCOCCNC(=O)CCC(=O)N2Cc3ccccc3-c3c(nnn3CCCO[C@@H]3O[C@H](CO)[C@@H](O[C@@H]4O[C@H](CO)[C@H](O)[C@H](O)[C@H]4O)[C@H](O)[C@H]3NC(=S)Nc3ccc(CNC(=O)CCC(C(=O)O)N4CCN(CC(=O)O)CCN(CC(=O)O)CCN(CC(=O)O)CC4)cc3)-c3ccccc32)NC(=O)CC[C@@H](C(N)=O)NC1=O (stereo partly drawn) [[^68Ga]-10, metal not drawn] . Reported tissue to tissue ratio at 70 min?
7.89

Now consider N=C(N)NCCC[C@@H]1NC(=O)CNC(=O)[C@H](CC(N)=O)NC(=O)[C@H](CCCCNC(=S)Nc2ccc(CNC(=O)CCC(C(=O)O)N3CCN(CC(=O)O)CCN(CC(=O)O)CCN(CC(=O)O)CC3)cc2)NC(=O)CC[C@@H](C(N)=O)NC1=O (stereo partly drawn) [[^68Ga]-11, metal not drawn] (K(X1)NGRE-NH2; lactam N-5) .
5.71

meta.source: paper PMC8703807
